# target-of-assay: X-prolyl dipeptidyl-aminopeptidase in human serum (Homo sapiens, UniProt P27487)
# Construct: Even if crude enzyme such as human serum is used as enzyme source, the activity is accurately measured; from tissue; host or cells: human serum (normal subjects and patients)
# Sequence (P27487 39-766 limits assumed): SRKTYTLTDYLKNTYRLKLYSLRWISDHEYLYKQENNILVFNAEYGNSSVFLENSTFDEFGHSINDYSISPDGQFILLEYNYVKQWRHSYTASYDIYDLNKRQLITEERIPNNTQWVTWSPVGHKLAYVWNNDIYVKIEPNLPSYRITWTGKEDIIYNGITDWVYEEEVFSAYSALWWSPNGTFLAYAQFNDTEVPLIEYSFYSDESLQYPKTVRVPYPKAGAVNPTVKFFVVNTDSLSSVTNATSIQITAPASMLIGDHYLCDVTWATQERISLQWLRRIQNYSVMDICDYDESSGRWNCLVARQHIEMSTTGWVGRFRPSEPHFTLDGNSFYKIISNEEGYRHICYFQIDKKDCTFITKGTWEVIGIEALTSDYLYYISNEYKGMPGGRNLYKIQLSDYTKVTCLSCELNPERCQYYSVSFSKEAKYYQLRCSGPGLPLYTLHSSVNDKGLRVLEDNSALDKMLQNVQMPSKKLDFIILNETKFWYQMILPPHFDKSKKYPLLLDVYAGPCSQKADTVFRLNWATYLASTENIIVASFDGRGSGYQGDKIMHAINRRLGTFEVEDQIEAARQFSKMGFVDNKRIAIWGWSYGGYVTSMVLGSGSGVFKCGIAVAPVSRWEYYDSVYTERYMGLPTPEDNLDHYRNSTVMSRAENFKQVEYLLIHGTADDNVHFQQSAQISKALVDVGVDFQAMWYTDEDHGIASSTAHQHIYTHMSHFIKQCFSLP
# procedure-summary: Direct photometric assay of substrate hydrolysis (p-nitroaniline liberated, 385 nm) with human serum as enzyme source
# Type: biochemical
# particulars: human serum, pH 7.0, 0.15 M Tris-maleate buffer; glycyl-L-proline p-nitroanilide = 100
Peptide text beside a SMILES is read from it. * marks the point of attachment. pNA = O=[N+]([O-])c1ccc(N*)cc1
Please assign F whenever Relative enzyme activity (%) Human serum pH 7.0 is at or above 80%, and T whenever it is below.

Study these solved cases before continuing.
>>> class_label("C[C@H](N)C(=O)N1CCC[C@H]1C(=O)Nc1ccc([N+](=O)[O-])cc1.Cl [L-alanyl-L-proline p-nitroanilide] (H-Ala-Pro-pNA)")
"F"
>>> class_label("NCC(=O)N1CCC[C@H]1C(=O)Nc1ccc([N+](=O)[O-])cc1 [glycyl-L-proline p-nitroanilide, Glycyl-L-proline p-nitroanilide] (H-Gly-Pro-pNA)")
"F"
>>> class_label("Cc1ccc(S(=O)(=O)O)cc1.Cc1ccc(S(=O)(=O)O)cc1.NCCCC[C@H](N)C(=O)N1CCC[C@H]1C(=O)Nc1ccc([N+](=O)[O-])cc1 [L-lysyl-L-proline p-nitroanilide] (H-Lys-Pro-pNA)")
"F"

[Q] Please check: Relative enzyme activity (%) Human serum pH 7.0 for Cc1ccc(S(=O)(=O)O)cc1.Cc1ccc(S(=O)(=O)O)cc1.N=C(N)NCCC[C@H](N)C(=O)N1CCC[C@H]1C(=O)Nc1ccc([N+](=O)[O-])cc1 [L-arginyl-L-proline p-nitroanilide] (H-Arg-Pro-pNA) , strictly under 80% or not?
[A] F

[Q] Please check: Relative enzyme activity (%) Human serum pH 7.0 for N[C@@H](CCC(=O)O)C(=O)N1CCC[C@H]1C(=O)Nc1ccc([N+](=O)[O-])cc1 [L-glutamyl-L-proline p-nitroanilide, L-Glutamyl-L-proline p-nitroanilide] (H-Glu-Pro-pNA) , strictly under 80% or not?
[A] T

[Q] Please check: Relative enzyme activity (%) Human serum pH 7.0 for N[C@@H](CC(=O)O)C(=O)N1CCC[C@H]1C(=O)Nc1ccc([N+](=O)[O-])cc1 [L-aspartyl-L-proline p-nitroanilide, L-Aspartyl-L-proline p-nitroanilide] (H-Asp-Pro-pNA) , strictly under 80% or not?
[A] T
